# Test system: Plasmodium falciparum
# ASSAY_EXPLANATION: Antimalarial activity against Plasmodium falciparum HB3 assessed as inhibition of malarial growth
# Format: functional, organism-based
pIC50: −log10 of the molar value.
Kindly return class 1 if reported pIC50 is no lower than 9; return class 0 if it is lower.

Example results:
{"COMPOUND": "C[C@@H]1CC[C@H]2[C@@H](C)C(CCOCc3cccc(COCCC4O[C@H]5O[C@@]6(C)CC[C@H]7[C@H](C)CC[C@@H]([C@H]4C)[C@@]57OO6)c3)O[C@H]3O[C@@]4(C)CC[C@@H]1[C@]32OO4 (some centres not stated)", "QUALITATIVE_LABEL": "class 0"}
{"COMPOUND": "COP(=O)(OCCCC1O[C@H]2O[C@@]3(C)CC[C@H]4[C@H](C)CC[C@@H]([C@H]1C)[C@@]24OO3)OCCC1O[C@H]2O[C@@]3(C)CC[C@H]4[C@H](C)CC[C@@H]([C@H]1C)[C@@]24OO3 (some centres not stated)", "QUALITATIVE_LABEL": "class 1"}

Now for a further compound.
Hi, just wondering whether C[C@@H]1CC[C@H]2[C@@H](C)C(CCCOP(=O)(OCCC3O[C@H]4O[C@@]5(C)CC[C@H]6[C@H](C)CC[C@@H]([C@H]3C)[C@@]46OO5)Oc3ccccc3)O[C@H]3O[C@@]4(C)CC[C@@H]1[C@]32OO4 (some centres not stated) shows pIC50 of 9 or higher.
class 1
